# assay.target: MCR1 (human, UniProt Q01726 1-317)
# Sequence (Q01726 whole entry): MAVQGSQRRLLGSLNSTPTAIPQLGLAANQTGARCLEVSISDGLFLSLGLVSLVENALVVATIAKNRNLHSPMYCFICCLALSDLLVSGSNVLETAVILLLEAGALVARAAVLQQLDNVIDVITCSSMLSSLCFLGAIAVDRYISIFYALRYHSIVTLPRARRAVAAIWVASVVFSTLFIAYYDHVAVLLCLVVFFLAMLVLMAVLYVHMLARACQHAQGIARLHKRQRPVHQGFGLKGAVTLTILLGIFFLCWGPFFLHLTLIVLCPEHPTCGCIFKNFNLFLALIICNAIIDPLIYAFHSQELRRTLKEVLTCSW
# experiment.notes: cell-based or functional assay
Square brackets hold non-standard residues; d marks the D form. Ends that are not written are not given here. Nle = CCCC[C@H](N)C(=O)O
Readings of MCR1 EC50 (nM); cAMP production, LANCE cAMP assay, CHO-MCR1 cells, cell pool B for the listed binders
Response body: numeric value in nM, unit text excluded.

Use these answered entries as a reference point.
>>> value_reported("ACTH1-24-linker-Furin site-linker-NDP-α-MSH (ends and bridges not checked) peptide: SYSMEHFRWGKPVGKKRRPVKVYPGGGGSRRKRGGGGSSYS[Nle]EH[dF]RWGKPV")
0.202
>>> value_reported("SYSMEHFRWGKPVGKKRRPVKVYPGGGGSRRKRSYSMEHFRWGKPV [ACTH1-24-proconvertase-α-MSH]")
0.92
>>> value_reported("ACTH1-24-linker-MMP site-linker-NDP-α-MSH (ends and bridges not checked) peptide: SYSMEHFRWGKPVGKKRRPVKVYPGGGGSPLGLWAGGGGSSYS[Nle]EH[dF]RWGKPV")
1.6

# context switch: different binder, same MCR1 EC50 (nM); cAMP production, LANCE cAMP assay, CHO-MCR1 cells, cell pool B
What value of MCR1 EC50 (nM); cAMP production, LANCE cAMP assay, CHO-MCR1 cells, cell pool B has been reported for the following binder? SYSMEHFRWGKPVGKKRRPVKVYPNGAEDESAEAFPLEFKR [ACTH1-39] 0.55
